Tested on: cats
method description: hemodynamics and activity of intact heart in cats under anesthesia
Assay type: in vivo
condition details: cats, 1.0 mg/kg i.v., after 5 min
# Mean blood flow accelaration (aortic), change from basal level listing for each entry below
measurement label: Mean blood flow accelaration (aortic), change from basal level (%)

compound=CN(C)CCSc1nc2ccccc2n1CCc1ccccc1 display_unit=% observed=−3.6
compound=CCOc1ccc2nc(SCCN(C)C)[nH]c2c1 display_unit=% observed=−2.0
compound="CCN(CC)CCSc1nc2cc(C)c(C)cc2[nH]1.Cl.Cl [XXIII, reference compound]" display_unit=% observed=−1.0

----------
Test system: male outbred mice
method description: potentiation of sleep induced by sodium thiopental
Type: in vivo
condition details: 10.0 mg/kg i.p. 30 min before thiopental 70 mg/kg i.p.
Procedure: The possible hypnotic effects of choosen drugs was estimated according to method of potentiation of sleep induced by sodium thiopental. The male outbred mice weighing 20-25 g were injected i.p. with sodium thiopental at dose of 70 mg/kg. Two parameters were estimated: latent time of sleeping and duration of sleep. The used compounds were administered i.p. 30 min prior injection of sodium thiopental.
measurement label: latent time of sleep after sodium thiopental (s)

molecule="C=CCSc1nc2ccc(OCC)cc2[nH]1 [IV, 2-Allylthio-5-ethoxybenzimidazole]" display_unit=s observed=2.5
molecule="CCOc1ccc2nc(SCCN3CCOCC3)[nH]c2c1 [XII]" display_unit=s observed=2.28
molecule="Cc1cc2nc(SCCN3CCCCC3)[nH]c2cc1C [XIV]" display_unit=s observed=2.9
molecule="Cc1cc2nc(SCCN3CCOCC3)[nH]c2cc1C [XV]" display_unit=s observed=2.8

----------
System: outbred male mice
method description: rotarod test (myorelaxant activity)
Type: in vivo
condition details: 1.0 mg/kg, cut-off 120 sec
Description: The myorelaxant activity of choosen compounds were studied in the outbred male mice weighing 22-25 g in rotarod test [Voronina T. A. et al., in: “Phenazepam”, Naukova Dumka, Kiev, 1982, p.145]. The animals were placed on the horizontal rotarod (D=2 cm) calibrated for a fixed speed of 4 rpm. According to the rotarod experimental protocol, normal motor coordination was defined by the ability of the animals to remain on the rotarod for an arbitrarily selected time of 120 sec.
measurement label: time of remaining on the rotarod

compound="CCOc1ccc2nc(SCCN3CCOCC3)[nH]c2c1 [XII]" observed="120.0 + 0 sec"
compound="C=CCSc1nc2ccc(OCC)cc2[nH]1 [IV, 2-Allylthio-5-ethoxybenzimidazole]" observed="120 + 0 sec"
compound="Cc1cc2nc(SCCN3CCOCC3)[nH]c2cc1C [XV]" observed="120 + 0 sec"
compound="Cc1cc2nc(SCCN3CCCCC3)[nH]c2cc1C [XIV]" observed="120 + 0 sec"

----------
Tested on: cats
method description: hemodynamics and activity of intact heart in cats under anesthesia
Type: in vivo
condition details: cats, 1.0 mg/kg i.v., after 20 min
measurement label: Cardiac volume, change from basal level (%)

molecule="CCN(CC)CCSc1nc2cc(C)c(C)cc2[nH]1.Cl.Cl [XXIII, reference compound]" measurement_label="Cardiac volume, change from basal level" observed=−4.2
molecule=CCOc1ccc2nc(SCCN(CC)CC)[nH]c2c1 measurement_label="Cardiac volume, change from basal level" observed=−0.2
molecule=CN(C)CCSc1nc2ccccc2n1CCc1ccccc1 measurement_label="Cardiac volume, change from basal level" observed=−4.1
molecule=CCOc1ccc2nc(SCCN(C)C)[nH]c2c1 measurement_label="Cardiac volume, change from basal level" observed=−7.2
